Test target: Dipeptidyl Peptidase-IV (DPP-IV) (Homo sapiens)
Construct: made in house
Sequence (P27487 whole entry): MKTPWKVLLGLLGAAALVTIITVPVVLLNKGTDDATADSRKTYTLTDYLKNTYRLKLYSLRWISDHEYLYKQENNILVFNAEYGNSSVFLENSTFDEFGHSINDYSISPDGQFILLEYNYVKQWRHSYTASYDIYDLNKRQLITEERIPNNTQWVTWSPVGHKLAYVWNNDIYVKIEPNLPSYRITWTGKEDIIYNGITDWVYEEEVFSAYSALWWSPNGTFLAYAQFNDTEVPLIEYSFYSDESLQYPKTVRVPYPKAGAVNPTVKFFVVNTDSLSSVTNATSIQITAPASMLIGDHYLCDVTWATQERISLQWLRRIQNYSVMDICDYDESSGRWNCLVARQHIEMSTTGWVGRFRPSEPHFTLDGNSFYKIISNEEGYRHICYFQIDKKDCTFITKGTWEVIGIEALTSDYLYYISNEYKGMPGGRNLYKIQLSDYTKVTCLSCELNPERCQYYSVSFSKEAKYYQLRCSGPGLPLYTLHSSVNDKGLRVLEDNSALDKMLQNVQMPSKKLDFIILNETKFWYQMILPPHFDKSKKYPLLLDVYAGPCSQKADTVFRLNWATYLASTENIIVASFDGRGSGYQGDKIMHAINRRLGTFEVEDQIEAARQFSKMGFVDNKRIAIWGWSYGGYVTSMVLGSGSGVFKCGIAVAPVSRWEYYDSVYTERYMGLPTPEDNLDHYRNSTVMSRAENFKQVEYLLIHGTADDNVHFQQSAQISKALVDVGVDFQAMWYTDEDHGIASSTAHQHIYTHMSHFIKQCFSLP
Assay: Measurement of DPP-IV Activity-Inhibiting Ability (fluorescent substrate Ac-Gly-Pro-AFC)
Assay type: biochemical
Conditions: 25° C., 50 mmol HEPES (pH 7.4), DP-IV 7.1 nM, enzyme reaction for 1 hour
Field: IC50. Provide a value for each of the molecules that follow.
Numbers only, in nM.

*Q* # IC50 lookup, item "C[C@@H]1CCC(=O)N(C[C@@H](N)CC(=O)N2CCn3c(nnc3C(F)(F)F)C2)C1"
*A* 35

*Q* For "N[C@@H](CC(=O)N1CCn2c(nnc2C(F)(F)C(F)(F)F)C1)CN1CC(F)(F)CCC1=O" , what is its reported IC50?
*A* 214

Lab note: each molecule below needs its IC50 filled in.
1. C[C@H]1CN(C[C@@H](N)CC(=O)N2CCc3c(nc(C(C)(C)C)nc3C(F)(F)F)C2)C(=O)CO1
2. C[C@@H]1CCC(=O)N(C[C@@H](N)CC(=O)N2CCc3c(nc(-c4cccnc4)nc3C(F)(F)F)C2)C1

*A*
1. 55
2. 8
